From: PubChem BioAssay

assayOverview: growth suppression of yeast trafficking mutant, preliminary HTS, modulators of trafficking downstream of Golgi apparatus project, 1536-format plate, OD 615 nm (AID 637)
measurementParameters: yeast transport mutant growth, absorbance 615 nm, 18 h; stronger effect = higher value
We begin with a simple list: items and their reported inhibition.
Report only the number, with the unit % understood.

Consider the worked cases shown below.
>>> numericresult("COc1ccc(OC)c(NC(=O)CS(=O)(=O)c2ccccc2)c1")
0.91
>>> numericresult("CCCC(=O)Nc1ccc(OCC(=O)OC)cc1")
0.79
>>> numericresult("COc1ccc2cnn(-c3ccccc3C)c(=O)c2c1OC")
0.55
>>> numericresult("CCOC(=O)CSC1=Nc2ccccc2C2=NC(CC(=O)NCc3cccs3)C(=O)N12 (stereo unspecified)")
-5.56
>>> numericresult("Cc1nc2ccc(S(=O)(=O)NCC(=O)N3CCc4ccccc4C3)cc2s1")
3.11

## Input State its inhibition: Cc1nc2sccn2c(=O)c1CCN1CCC(=C(c2ccccc2)c2ccc(F)cc2)CC1
## Output 24.5

###

assayOverview: reversal of MRP1-mediated doxorubicin resistance, pilot screen, H69AR cells, doxorubicin co-treatment (AID 601)
measurementParameters: H69AR cells + 2 uM doxorubicin, CellTiter-Glo, 72 h; measured here: viability with 2 uM doxorubicin; at 10 µM; stronger effect = lower value
observationType: viability (%)
The response must be a number in % with no trailing unit.

The cases that follow already have their viability on record.
>>> numericresult("O=C(NCC(=O)N(CCc1ccccc1)C(C(=O)NC1CCCC1)c1cccnc1)c1ccco1 (configuration not stated)")
101
>>> numericresult("O=C(c1cnn2c1NC(c1ccco1)CC2C(F)(F)F)N1CCN(c2cccc(Cl)c2)CC1 (configuration not stated)")
70.8

## Input Specify viability for Cn1cnnc1Sc1nc2c(c(=O)n(C)c(=O)n2C)n1C and stop.
## Output 96.5

## Input Let me know recorded viability for O=C1c2ccccc2NC(c2ccco2)N1O (configuration not stated) , thanks.
## Output 87.3

## Input Annotate the molecule CCOc1ccccc1NC(=O)CCSc1nc2n[nH]c(C)c2c(=N)n1-c1ccccc1Cl with its measured viability.
## Output 16.4

###

assayOverview: reversal of MRP1-mediated doxorubicin resistance, pilot screen, H69AR cells, doxorubicin co-treatment (AID 601)
measurementParameters: H69AR cells + 2 uM doxorubicin, CellTiter-Glo, 72 h; measured here: viability with 2 uM doxorubicin; at 10 µM; stronger effect = lower value
Would you mind sorting the entries by viability according to these classes? low value: < 80%; medium value: ≥ 80% and < 90%; high value: ≥ 90%

>>> discretelabel("COc1ccc(OC)c(NS(=O)(=O)Cc2ccccc2)c1")
"high value"
>>> discretelabel("Cc1ccc2[nH]c(=O)c(-c3noc(-c4ccncc4)n3)cc2c1")
"high value"
>>> discretelabel("CCOC(=O)c1sc2cccc(F)c2c1N")
"medium value"
>>> discretelabel("CCc1cccc(NC(=O)CN(C)S(=O)(=O)c2cccc3nsnc23)c1")
"medium value"
>>> discretelabel("Cc1ccc2c(c1C)NC(C(=O)O)C1CC=CC21 (centres undefined)")
"high value"
>>> discretelabel("Cc1[nH]nc2c1C(=O)CCC2")
"high value"
>>> discretelabel("Cn1c(=O)[nH]c(=O)c2c1nc(N1CCc3ccccc3C1)n2CCSc1nc2ccccc2s1")
"low value"
>>> discretelabel("c1ccc(-c2ccc(C(c3ccccc3)n3ccnc3)cc2)cc1 (centres undefined)")
"low value"
>>> discretelabel("Cc1nc2cc(N3CCCCC3)c(NC(=O)c3cccnc3)cc2c(=O)n1Cc1ccccc1")
"low value"
>>> discretelabel("CCc1cc2c(=O)c(-c3cscn3)coc2cc1O")
"high value"

## Input Into which bin does this molecule go? Cn1nnnc1SCC1=C(C(=O)O)N2C(=O)[C@@H](NC(=O)[C@H](O)c3ccccc3)[C@H]2SC1
## Output high value

## Input Which viability category applies to CCOC(=O)CNC(=O)CSc1nnnn1-c1cc(C)ccc1C here?
## Output high value

###

As shown below, each of these compounds has a reported viability value.
assayOverview: reducers of endogenous Her2 protein level, primary screen, SKBR3 breast tumor cells, AlphaScreen, ATP viability (AID 461);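 note: percent of carrier control wells set as 100% viability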
measurementParameters: 18-24 h, measured here: SKBR3 viability, ATP luminescence, at 10 µM
Units required after the number.

>>> result("O=C(COc1ccccc1)Nc1ccccc1N1CCN(c2ccccc2)CC1")
"80%"
>>> result("CC(C)OC(=O)CSc1nnnn1-c1ccc2c(c1)OCCO2")
"99.5%"

## Input Give the reported viability for this compound. COc1ccc(CCNc2oc(-c3ccccc3OC)nc2C#N)cc1
## Output 88%

## Input Look up and report measured viability for this entry: CN(CC(=O)Nc1sccc1C#N)C1CCCCC1
## Output 106%

## Input Supply viability value. Item: O=C1c2ccccc2C(Nc2ccc3c(c2)OCCO3)N1Cc1ccco1 (stereo unspecified)
## Output 106%

## Input Please report viability for the following compound: COc1cc2nc(SCC(=O)NC3CC3)n(CCC3=CCCCC3)c(=O)c2cc1OC
## Output 102%

###

assayOverview: HUVEC growth inhibition – cell-based, human, primary screen (AID 575);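 note: 100% = median of untreated cell wells with 0.1% DMSO on each plate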
measurementParameters: HUVEC proliferation, CellTiter-Glo luminescence, 72 h; at 10 µM; stronger effect = lower value
Ranges used to classify viability: lower segment (below 80%), middle segment (80% to below 90%), upper segment (90% or more)

Use these answered entries as a reference point.
>>> discretelabel("Fc1ccc(C2C3=C(Nc4ncnn42)c2ccccc2OC3c2ccncc2)cc1 (configuration not stated)")
"middle segment"
>>> discretelabel("COc1ccccc1-c1nnc(NC(=O)c2ccc(S(=O)(=O)N(C)Cc3ccccc3)cc2)o1")
"lower segment"
>>> discretelabel("CC(=O)[C@H]1CC[C@H]2[C@@H]3CCC4=CC(=O)CC[C@]4(C)[C@H]3[C@H](O)C[C@]12C")
"middle segment"
>>> discretelabel("C=CCC1(O)C(=O)Nc2ccccc21 (configuration not stated)")
"upper segment"
>>> discretelabel("CCCNC(=O)c1cc(S(=O)(=O)N2CCc3ccccc32)ccc1F")
"upper segment"
>>> discretelabel("CCOC(=O)CSC1=C(C#N)C(c2ccc3c(c2)OCO3)CC(=O)N1 (configuration not stated)")
"lower segment"
>>> discretelabel("CCOc1cccc2cc(C(=O)N3CCN(C/C=C/c4ccccc4)CC3)c(=O)oc12")
"upper segment"
>>> discretelabel("CS(=O)(=O)N1CCCC(C(=O)N2CCOCC2)C1 (configuration not stated)")
"upper segment"

## Input Lab note: sort C=CCn1c(=O)c(C(=O)Nc2ccccc2C(=O)OCC)c(O)c2ccccc21 into the matching viability band.
## Output middle segment

## Input Which category does the recorded viability put c1ccc2c3nnc4n(c-3nc2c1)CCCS4 in?
## Output upper segment

## Input Class label required: CCN1C(=O)C(C(=O)Nc2ccc(OC)cc2)C2CC1(C)Oc1ccccc12 (configuration not stated)
## Output upper segment

## Input Entry c1ccc2c(-c3nc(-c4ccncc4)no3)cccc2c1 belongs to which category?
## Output middle segment

## Input Hey, which category is CCC(C)(C(=O)NC1CCCC1)N(Cc1cccs1)C(=O)Cc1cccs1 (configuration not stated) in, do you know?
## Output upper segment

###

Recorded viability for the following molecules
assayOverview: reversal of MRP1-mediated doxorubicin resistance, pilot screen, H69AR cells, doxorubicin co-treatment (AID 601)
measurementParameters: H69AR cells + 2 uM doxorubicin, CellTiter-Glo, 72 h; measured here: viability with 2 uM doxorubicin; at 10 µM; stronger effect = lower value
Numeric answer only, unit % assumed.

>>> numericresult("O=C(O)c1cccc(NC(=O)C23CC4CC(C2)CC(n2cnc(Cl)n2)(C4)C3)c1")
91.1
>>> numericresult("O=C(NCc1ccccc1)C1CCCN(S(=O)(=O)c2cccnc2)C1 (stereo unspecified)")
92.8
>>> numericresult("O=C(O)c1cc(-c2ccccc2)nc2ccccc12")
74.6
>>> numericresult("CN(CC(=O)N1CCCc2c1c(=O)oc1ccc(O)cc21)Cc1ccccc1")
93.3
>>> numericresult("COc1cccc(C2CC(c3ccccc3)n3ncnc3N2)c1 (stereo unspecified)")
80

## Input Indicate the recorded viability value for this molecule: CCOc1ccc2[nH]cc(C(=O)N3CCN(CC)CC3)c(=O)c2c1
## Output 104

## Input Report viability for Cc1ccc(-c2nn(-c3ccccc3)cc2/C=C(\C#N)c2cccc(C#N)c2)o1
## Output 73.3

## Input Given CCOC(=O)C1CCCN(C(=O)c2sc3nc(-c4ccccc4)cn3c2C)C1 (stereo unspecified) , respond with its viability.
## Output 82.9

## Input For the molecule Cc1ccc(Cl)c(Nc2ccccc2C(=O)O)c1Cl , report viability.
## Output 97.9

## Input Read off the recorded viability for Cc1cc(C)nc(N2CCC(C(=O)Nc3ccc4c(c3)CCC4)CC2)n1
## Output 96

## Input Kindly indicate its recorded viability. Item: Cc1nc2sccn2c(=O)c1CCN1CCC(=C(c2ccccc2)c2ccc(F)cc2)CC1
## Output 94.5
